quantityKind: melting point

INSERT INTO assay_data (compound, valueobserved) VALUES
  ('COc1cc2nc(NC3CCC(N(C)C)CC3)c(-c3ccccn3)nc2cc1OC (centres undefined)', '168 to 171 °C'),
  ('CCCCCCN(CCCC(=O)Nc1c(SC)nc(C)nc1N(CC)CC)c1ccc(Br)cc1', '89.8 to 93 °C'),
  ('CCn1ncc2nc(C(=O)N3CCN(C)CC3)c(-c3ccccc3)nc21', '170 to 171 °C'),
  ('CON=Cc1cc(N2C(=O)C3=C(CCCC3)C2=O)c(Cl)cc1Cl', '122 to 124 °C');

====

The following compounds are listed with their measured melting point values.
quantityKind: melting point

INSERT INTO measurements (smilesdata, valueobserved) VALUES
  ('CC(C)(C)OC(=O)NNCc1ccc(Cl)cc1', '77 to 82 °C'),
  ('Cc1noc(NS(=O)(=O)c2c(C(=O)c3ccc4c(c3)OCO4)sc3ncccc23)c1Cl', '75 to 90 °C'),
  ('Nc1nc(N)c2cc(S(=O)(=O)c3ccc4ccccc4c3)ccc2n1', '300 to 302 °C');

====

The following compounds are listed with their measured melting point values.
quantityKind: melting point

INSERT INTO results (compound, valueobserved) VALUES
  ('CC(=O)Oc1cc2ccc(S(=O)(=O)Cl)cc2cc1OC(C)=O', '158 to 167 °C'),
  ('CCOC(=O)N1CCC(NC(=O)c2ccccc2)C12CCCCC2 (stereo not given)', '132 to 133 °C'),
  ('CC(C)c1ccc(C(=O)C2c3ccccc3Oc3ccccc32)c(C(C)C)c1OS(N)(=O)=O', '180 to 181 °C'),
  ('O=C(NCc1ccccc1)c1ccnc(N2CCN(Cc3ccc(F)cc3)C2=O)c1', '99 to 101 °C'),
  ('O=C(O)Cn1cccc1', '88 to 90 °C'),
  ('NC(=O)/C=C1\CCc2c(F)cc(F)cc21', '178 to 180 °C'),
  ('Cc1[nH]c2cc(OCc3ccccc3)ccc2c1C(=O)C1CSC(c2cccnc2)N1 (stereo not given)', '89 to 93 °C'),
  ('Cn1c(-c2ccccc2)nc(CN2CCN(c3ccc(O)cc3)CC2)cc1=O', '206 to 207 °C'),
  ('Oc1cccc(CCc2cc(-c3ccccc3)n(-c3ccccc3)n2)c1', '211 to 212 °C'),
  ('COC(=O)CNc1cc2cc(OC)ccc2cc1OCc1ccccc1', '129 to 131 °C');

====

The following compounds are listed with their measured melting point values.
quantityKind: melting point (°C)

INSERT INTO results (compound, quantitykind, readoutunits, valueobserved) VALUES
  ('Cc1cc2ccccc2c(C2CC(=O)C=C(O)C2)c1C (centres undefined)', 'melting point', '°C', 242),
  ('COc1cc(OC)nc(Oc2cccc(Oc3nc(OC)cc(OC)n3)c2C=O)n1', 'melting point', '°C', 129);

====

The following compounds are listed with their measured melting point values.
quantityKind: melting point

INSERT INTO results (compound, quantitykind, valueobserved) VALUES
  ('Clc1ccc(C(OCCN2CCOCC2)(c2ccc(Cl)cc2)c2ccc(Cl)cc2)cc1', 'melting point', '151 to 153 °C'),
  ('Cc1ccc(C(=O)C2=C(O)C(=O)N(c3ccc(C(C)C)nn3)C2c2ccc(C(C)C)cc2)cc1 (configuration not stated)', 'melting point', '269 to 270 °C'),
  ('CC12CCC(=O)C=C1CCC1C2C(F)CC2(C)C(O)CCC12 (configuration not stated)', 'melting point', '161 to 162 °C'),
  ('C=CC(=O)c1cn(C)c2ccccc12', 'melting point', '106 to 107 °C'),
  ('CC(C)(CO)NC1=NS(=O)(=O)c2sc(Cl)cc2N1', 'melting point', '224 to 226 °C'),
  ('CCc1nc2cnc3ccccc3c2n1CCCCNS(C)(=O)=O', 'melting point', '166 to 168 °C'),
  ('CN(C)CC(=O)Nc1ccccc1N', 'melting point', '119 to 121 °C');

====

The following compounds are listed with their measured melting point values.
quantityKind: melting point

INSERT INTO assay_data (compound, quantitykind, valueobserved) VALUES
  ('O=C1N(Cn2nc3ccccc3n2)c2ccccc2C12COc1cc3c(cc12)CCO3 (stereo not drawn)', 'melting point', '102 to 105 °C'),
  ('N#Cc1ccc(Nc2ccncc2[N+](=O)[O-])cc1', 'melting point', '210 to 211 °C'),
  ('O=C(O)COc1cc(F)ccc1C(=S)NCc1cccc([N+](=O)[O-])c1', 'melting point', '147 to 150 °C');

====

The following compounds are listed with their measured melting point values.
quantityKind: melting point

INSERT INTO results (compound, valueobserved) VALUES
  ('CC1(c2ccccc2)C(=O)Nc2ccc(Cl)cc21 (configuration not stated)', '180 to 181 °C'),
  ('CCCCCCS(=O)(=O)c1nn2c(=O)c(Cl)c(F)nc2s1', '185 to 188 °C'),
  ('CCCCc1nc(CO)c(C(=O)N2CCC[C@H]2C(=O)OC)n1Cc1ccc(-c2ccccc2C(=O)O)cc1', '> 120 °C'),
  ('N#CC1(C2(O)CCCCC2)Cc2cc3c(cc21)NCC3 (configuration not stated)', '168 to 170 °C'),
  ('C[C@H](NC(=O)c1ccc(C(N)=NO)cc1)C(=O)N1CCC(OCC(=O)OCOC(=O)C(C)(C)C)CC1', '126 °C'),
  ('O=C(C=CCl)c1cc(F)c(Cl)cc1Cl', '65 to 70 °C'),
  ('CC(=O)OCCn1cc(C(N)=O)c([N+](=O)[O-])n1', '139 to 141 °C'),
  ('NC(Oc1ccccc1)C(O)CCCNc1ccc(Br)cc1 (configuration not stated)', '106 to 110 °C'),
  ('O=C1CCCc2c(F)cc(F)cc21', '89 to 91 °C'),
  ('CC1(C(O)(Cc2ccccc2Cl)Cn2cncn2)CCCCC1 (configuration not stated)', '105 °C'),
  ('Sc1c(Cl)cc(Cl)c(Cl)c1S', '115 to 116 °C'),
  ('N#Cc1cccc(Br)c1CBr', '90 to 93 °C'),
  ('COc1ccc(-c2nc(-c3ccc[nH]3)n(CCCBr)c2-c2ccc(OC)cc2)cc1', '97 °C'),
  ('CCOCC(=O)N(c1c(C)c(C)cc2ccccc12)C(C)C(=O)OC (configuration not stated)', '96 to 108 °C'),
  ('C#CC1(OC(=O)CC)C(COC(=O)c2ccc(Cl)cc2)OC(n2ccc(=O)[nH]c2=O)C1OC(=O)CC (configuration not stated)', '208 to 210 °C'),
  ('O=C(O)c1nn(Cc2ccc(Cl)cc2Cl)c2c1Cc1cc(Cl)ccc1-2', '> 260 °C'),
  ('COc1c(C)c(C)c(NC(=O)OC(C)(C)C)c(C)c1Br', '159 to 161 °C'),
  ('COc1c(C=CC(=O)O)cccc1Oc1ccccc1C', '143 to 146 °C'),
  ('Clc1cccc(Cl)c1NCC1CC1', '149 to 158 °C'),
  ('N#Cc1cnn(-c2ccc(Cl)nn2)c1N', '250 to 252 °C'),
  ('Cc1ccc(C(CO)c2ccc(C(C)C)cc2)c(O)c1C (configuration not stated)', '83 to 84 °C'),
  ('C=CCc1cc(NC(C)=O)ccc1O', '82 to 85 °C'),
  ('CN1C(=O)N(C)P(C)(=S)C1=O (configuration not stated)', '95 °C'),
  ('CCCCN1C(=O)CSC(=NO)C1C (configuration not stated)', '118 to 120 °C'),
  ('O=C(CC(=O)C1CC1)c1ncc(Cl)cc1Cl', '50.2 to 52.7 °C'),
  ('Cc1cccc2c(=O)c3ccccc3ccc12', '77 to 80 °C'),
  ('COC(=O)c1c(N)ncn1-c1c(C)cccc1C', '154 to 156 °C'),
  ('C[C@@H]1S[C@@H](C(=O)O)Cc2cc3c(cc2C1=O)OCO3', '192 to 193 °C'),
  ('CCn1c(=O)c2[nH]c(/C=C/c3ccc(N(C)C)cc3)nc2n(CC)c1=O', '> 300 °C'),
  ('CC(C)C(OC(=O)NC1(C(=O)O)CC1)OC(=O)C1CCCCC1 (configuration not stated)', '156 to 158 °C'),
  ('COc1ccc(Cn2cnc(N)c3nc(C(C)C)nc2-3)cc1OC1CCCC1', '190 to 193 °C'),
  ('CCOC(=O)c1nc2c(=O)[nH]c3cc(C(F)(F)F)ccc3n2c1CNc1ccc2c(c1)OCO2', '> 250 °C');

====

quantityKind: melting point

INSERT INTO results (compound, valueobserved) VALUES
  ('O=C1c2c(Br)cccc2S(=O)(=O)N1CCl', '157 to 159 °C'),
  ('CCS(=O)CCC(=O)NNC(=O)N1Cc2ccccc2Oc2ccc(Cl)cc21 (stereo not drawn)', '185 to 188 °C'),
  ('O=C(O)c1nc(Cl)sc1Cl', '191 °C'),
  ('O=S(=O)(CC=C1CCC1)c1ccccc1', '76 to 78 °C'),
  ('CC(C)(C)OC(=O)N1CC(O)CN1C(=O)OC(C)(C)C', '100 to 102 °C'),
  ('N#Cc1ccc(Cn2cncc2CCOc2ccc3c(c2CCc2ccccc2)CCCC3=O)cc1', '179 to 180 °C'),
  ('CC(C)(C)c1ccc(C(O)CCCCN2CCC(=C3c4ccccc4CCc4ccccc43)CC2)cc1 (stereo not drawn)', '157 to 158 °C'),
  ('NC1=NS(=O)N=C1NCCCOc1cccc2c(N3CCOCC3)nccc12 (stereo not drawn)', '222 to 224 °C');
